Collected IC50 at 48 h values appear next to each entry.
Test: in vitro
Details: human, PCS-800-011 normal lymphocyte cells
// return numeric value only (unit: µM, not printed)

Completed entries (count: 3):
1) CC1COc2c(N3CCN(C)CC3)c(F)cc3c(=O)c(C(=O)N4NC(=O)CC4=N)cn1c23 (stereo not shown) [Compound 7] :: 32.1
2) CCOC(=O)CC(C)=NNC(=O)c1cn2c3c(c(N4CCN(C)CC4)c(F)cc3c1=O)OCC2C (stereo not shown) [Compound 5] :: 19.7
3) COc1cc([C@@H]2c3cc4c(cc3[C@@H](O[C@@H]3O[C@@H]5CO[C@@H](C)O[C@H]5[C@H](O)[C@H]3O)[C@H]3COC(=O)[C@H]23)OCO4)cc(OC)c1O [Etoposide, reference compound] :: 37.1

Incoming: Look up and state reported IC50 at 48 h for C[C@H]1COc2c(N3CCN(C)CC3)c(F)cc3c(=O)c(C(=O)O)cn1c23 [Levofloxacin, reference compound]
Outgoing: 20.2

The measured values listed here are drawn from paper PMC11369887.
